List of IC50 values.
biological target: human FAP (Homo sapiens (Human)); assay: Inhibition assay of FAP (fluorogenic substrate Z-Gly-Pro-AMC); assay type: biochemical; details: substrate Z-Gly-Pro-AMC 20 μM; FAP concentration lower than expected IC50 (66 pM in FIG. 3, 4); room temperature; read-out: IC50 vs human FAP
Sequence (Q12884 whole entry): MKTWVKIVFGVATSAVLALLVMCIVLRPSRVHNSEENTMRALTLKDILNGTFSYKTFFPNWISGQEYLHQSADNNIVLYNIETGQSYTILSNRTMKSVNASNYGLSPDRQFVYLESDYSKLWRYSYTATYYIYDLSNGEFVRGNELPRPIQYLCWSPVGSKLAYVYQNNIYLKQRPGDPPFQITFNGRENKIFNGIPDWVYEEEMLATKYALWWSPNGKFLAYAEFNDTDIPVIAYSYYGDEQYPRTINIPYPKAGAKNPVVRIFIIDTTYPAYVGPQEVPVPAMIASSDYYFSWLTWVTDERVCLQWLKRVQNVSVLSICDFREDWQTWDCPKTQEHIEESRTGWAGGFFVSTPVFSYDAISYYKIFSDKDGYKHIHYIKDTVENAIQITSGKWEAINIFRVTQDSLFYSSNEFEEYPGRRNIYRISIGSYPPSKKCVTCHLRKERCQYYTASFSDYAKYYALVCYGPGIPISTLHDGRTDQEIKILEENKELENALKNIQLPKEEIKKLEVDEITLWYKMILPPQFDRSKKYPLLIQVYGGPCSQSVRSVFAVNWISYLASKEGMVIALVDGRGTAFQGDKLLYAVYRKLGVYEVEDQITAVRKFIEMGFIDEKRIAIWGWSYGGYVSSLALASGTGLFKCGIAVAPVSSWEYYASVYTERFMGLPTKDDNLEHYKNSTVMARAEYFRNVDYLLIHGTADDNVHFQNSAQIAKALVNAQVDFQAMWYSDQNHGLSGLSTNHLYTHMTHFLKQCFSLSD
measurement.kind: IC50 (nM)

{"columns": ["smiles.text", "value"],
 "data": [
  ["C[C@@H](NC(=O)[C@H](CCCNC(=N)N)NC(=O)CCC(=O)Nc1cccc2c(C(=O)NCC(=O)N3CC(F)(F)C[C@H]3C#N)ccnc12)C(=O)N[C@@H](CCCCN)C(=O)O", 0.991],
  ["CC(C)[C@H](NC(=O)[C@H](CCCNC(=N)N)NC(=O)CCC(=O)Nc1cccc2c(C(=O)NCC(=O)N3CC(F)(F)C[C@H]3C#N)ccnc12)C(=O)N[C@@H](CCCCN)C(=O)O", 1.66],
  ["CC(C)[C@@H](NC(=O)[C@H](CCCNC(=N)N)NC(=O)CCC(=O)Nc1cccc2c(C(=O)NCC(=O)N3CC(F)(F)C[C@H]3C#N)ccnc12)C(=O)N[C@@H](CCCCN)C(=O)O", 0.697]
]}
